test system: SCID mice bearing twin HEK293-CCK2i4svR and wtHEK293 tumors; test: Biodistribution in SCID mice bearing twin HEK293-CCK2i4svR and wtHEK293 xenografts; assay type: in vivo; details: 24 h pi
MEASURED ATTRIBUTE: Biodistribution, Stomach (%IA/g)
Answers are plain numbers, in %IA/g.

## Task Can you look up Biodistribution, Stomach on SCID mice bearing twin HEK293-CCK2i4svR and wtHEK293 tumors for CC(C)(C)C(=O)CN1C(=O)[C@H](NC(=O)Nc2cccc(C(=O)NCCOCCOCCOCCNC(=O)[C@H](CCC(=O)O)NC(=O)CCC(C(=O)O)N3CCN(CC(=O)[O-])CCN(CC(=O)[O-])CCN(CC(=O)[O-])CC3)c2)CN(C2CCCCC2)c2ccccc21.[67Ga+3] (stereo in doubt) [[^67Ga]Ga-GAS3] ?
## Result 0.19

====

tested on: SCID mice bearing twin HEK293-CCK2i4svR and wtHEK293 tumors; test: Biodistribution in SCID mice bearing twin HEK293-CCK2i4svR and wtHEK293 xenografts; assay type: in vivo; conditions: 24 h pi
Assignment: determine reported Biodistribution, CCK2i4svR(-) Tumor for the given molecules.
Give bare numbers, in %IA/g.

[
  {
    "MOLECULE": "CC(C)(C)C(=O)CN1C(=O)[C@H](NC(=O)Nc2cccc(C(=O)NCCOCCOCCOCCNC(=O)[C@H](CCC(=O)O)NC(=O)CN3CCN(CC(=O)[O-])CCN(CC(=O)[O-])CCN(CC(=O)[O-])CC3)c2)CN(C2CCCCC2)c2ccccc21.[177Lu+3] (stereo in doubt) [[^177Lu]Lu-GAS1]",
    "NUMERIC READOUT": 0.29
  },
  {
    "MOLECULE": "CC(C)(C)C(=O)CN1C(=O)[C@H](NC(=O)Nc2cccc(C(=O)NCCOCCOCCOCCNC(=O)[C@H](CCC(=O)O)NC(=O)CCC(C(=O)[O-])N3CCN(CC(=O)[O-])CCN(CC(=O)[O-])CC3)c2)CN(C2CCCCC2)c2ccccc21.[67Ga+3] (stereo in doubt) [[^67Ga]Ga-GAS2]",
    "NUMERIC READOUT": 0.08
  },
  {
    "MOLECULE": "CC(C)(C)C(=O)CN1C(=O)[C@H](NC(=O)Nc2cccc(C(=O)NCCOCCOCCOCCNC(=O)[C@@H](CCC(=O)O)NC(=O)CCC(C(=O)[O-])N3CCN(CC(=O)[O-])CCN(CC(=O)[O-])CC3)c2)CN(C2CCCCC2)c2ccccc21.[111In+3] (some centres unmarked) [[^111In]In-GAS2]",
    "NUMERIC READOUT": 0.41
  },
  {
    "MOLECULE": "CC(C)(C)C(=O)CN1C(=O)[C@H](NC(=O)Nc2cccc(C(=O)NCCOCCOCCOCCNC(=O)[C@H](CCC(=O)O)NC(=O)CN3CCN(CC(=O)[O-])CCN(CC(=O)[O-])CCN(CC(=O)[O-])CC3)c2)CN(C2CCCCC2)c2ccccc21.[111In+3] (stereo in doubt) [[^111In]In-GAS1]",
    "NUMERIC READOUT": 0.27
  },
  {
    "MOLECULE": "CC(C)(C)C(=O)CN1C(=O)[C@H](NC(=O)Nc2cccc(C(=O)NCCOCCOCCOCCNC(=O)[C@H](CCC(=O)O)NC(=O)CN3CCN(CC(=O)[O-])CCN(CC(=O)[O-])CCN(CC(=O)[O-])CC3)c2)CN(C2CCCCC2)c2ccccc21.[67Ga+3] (stereo in doubt) [[^67Ga]Ga-GAS1]",
    "NUMERIC READOUT": 0.00
  },
  {
    "MOLECULE": "CC(C)(C)C(=O)CN1C(=O)[C@H](NC(=O)Nc2cccc(C(=O)NCCOCCOCCOCCNC(=O)[C@H](CCC(=O)O)NC(=O)CCC(C(=O)O)N3CCN(CC(=O)[O-])CCN(CC(=O)[O-])CCN(CC(=O)[O-])CC3)c2)CN(C2CCCCC2)c2ccccc21.[177Lu+3] (stereo in doubt) [[^177Lu]Lu-GAS3]",
    "NUMERIC READOUT": 0.37
  },
  {
    "MOLECULE": "CC(C)(C)C(=O)CN1C(=O)[C@H](NC(=O)Nc2cccc(C(=O)NCCOCCOCCOCCNC(=O)[C@H](CCC(=O)O)NC(=O)CCC(C(=O)O)N3CCN(CC(=O)[O-])CCN(CC(=O)[O-])CCN(CC(=O)[O-])CC3)c2)CN(C2CCCCC2)c2ccccc21.[67Ga+3] (stereo in doubt) [[^67Ga]Ga-GAS3]",
    "NUMERIC READOUT": 0.61
  }
]

Could you now look at the following molecule, please?
## Task Which value of Biodistribution, CCK2i4svR(-) Tumor has been reported for CC(C)(C)C(=O)CN1C(=O)[C@H](NC(=O)Nc2cccc(C(=O)NCCOCCOCCOCCNC(=O)[C@@H](CCC(=O)O)NC(=O)CCC(C(=O)O)N3CCN(CC(=O)[O-])CCN(CC(=O)[O-])CCN(CC(=O)[O-])CC3)c2)CN(C2CCCCC2)c2ccccc21.[111In+3] (some centres unmarked) [[^111In]In-GAS3] in the records?
## Result 0.40

====

test: Radioligand stability in mice (radio-HPLC of blood and urine); assay type: in vivo; details: mice urine collected 30 min pi; mean ± SD
Would you kindly list Intact radioligand in urine for each of these molecules?

In the examples that follow, each entry is paired with its recorded Intact radioligand in urine.
[
  {
    "MOLECULE": "CC(C)(C)C(=O)CN1C(=O)[C@H](NC(=O)Nc2cccc(C(=O)NCCOCCOCCOCCNC(=O)[C@H](CCC(=O)O)NC(=O)CN3CCN(CC(=O)[O-])CCN(CC(=O)[O-])CCN(CC(=O)[O-])CC3)c2)CN(C2CCCCC2)c2ccccc21.[67Ga+3] (stereo in doubt) [[^67Ga]Ga-GAS1]",
    "MEASURED ATTRIBUTE": "Intact radioligand in urine",
    "RESULT": "80.2 ± 1.0 (3) %"
  },
  {
    "MOLECULE": "CC(C)(C)C(=O)CN1C(=O)[C@H](NC(=O)Nc2cccc(C(=O)NCCOCCOCCOCCNC(=O)[C@H](CCC(=O)O)NC(=O)CCC(C(=O)[O-])N3CCN(CC(=O)[O-])CCN(CC(=O)[O-])CC3)c2)CN(C2CCCCC2)c2ccccc21.[67Ga+3] (stereo in doubt) [[^67Ga]Ga-GAS2]",
    "MEASURED ATTRIBUTE": "Intact radioligand in urine",
    "RESULT": "81.6 ± 1.5 (3) %"
  }
]

Shift focus to the following entry.
## Task Requested read-out: Intact radioligand in urine. Entry: CC(C)(C)C(=O)CN1C(=O)[C@H](NC(=O)Nc2cccc(C(=O)NCCOCCOCCOCCNC(=O)[C@H](CCC(=O)O)NC(=O)CN3CCN(CC(=O)[O-])CCN(CC(=O)[O-])CCN(CC(=O)[O-])CC3)c2)CN(C2CCCCC2)c2ccccc21.[177Lu+3] (stereo in doubt) [[^177Lu]Lu-GAS1]
## Result 79.2 ± 10.3 (3) %

====

system: SCID mice bearing twin HEK293-CCK2i4svR and wtHEK293 tumors; test: Biodistribution in SCID mice bearing twin HEK293-CCK2i4svR and wtHEK293 xenografts; format: in vivo; conditions: 4 h pi
MEASURED ATTRIBUTE: Biodistribution, Spleen (%IA/g)
Give bare numbers, in %IA/g.

Some solved cases for reference:
[
  {
    "COMPOUND": "CC(C)(C)C(=O)CN1C(=O)[C@H](NC(=O)Nc2cccc(C(=O)NCCOCCOCCOCCNC(=O)[C@H](CCC(=O)O)NC(=O)CN3CCN(CC(=O)[O-])CCN(CC(=O)[O-])CCN(CC(=O)[O-])CC3)c2)CN(C2CCCCC2)c2ccccc21.[67Ga+3] (stereo in doubt) [[^67Ga]Ga-GAS1]",
    "SUBJECT OF TEST": "SCID mice bearing twin HEK293-CCK2i4svR and wtHEK293 tumors",
    "Biodistribution, Spleen [%IA/g]": 0.78
  },
  {
    "COMPOUND": "CC(C)(C)C(=O)CN1C(=O)[C@H](NC(=O)Nc2cccc(C(=O)NCCOCCOCCOCCNC(=O)[C@@H](CCC(=O)O)NC(=O)CCC(C(=O)[O-])N3CCN(CC(=O)[O-])CCN(CC(=O)[O-])CC3)c2)CN(C2CCCCC2)c2ccccc21.[111In+3] (some centres unmarked) [[^111In]In-GAS2]",
    "SUBJECT OF TEST": "SCID mice bearing twin HEK293-CCK2i4svR and wtHEK293 tumors",
    "Biodistribution, Spleen [%IA/g]": 1.49
  },
  {
    "COMPOUND": "CC(C)(C)C(=O)CN1C(=O)[C@H](NC(=O)Nc2cccc(C(=O)NCCOCCOCCOCCNC(=O)[C@H](CCC(=O)O)NC(=O)CN3CCN(CC(=O)[O-])CCN(CC(=O)[O-])CCN(CC(=O)[O-])CC3)c2)CN(C2CCCCC2)c2ccccc21.[177Lu+3] (stereo in doubt) [[^177Lu]Lu-GAS1]",
    "SUBJECT OF TEST": "SCID mice bearing twin HEK293-CCK2i4svR and wtHEK293 tumors",
    "Biodistribution, Spleen [%IA/g]": 0.59
  },
  {
    "COMPOUND": "CC(C)(C)C(=O)CN1C(=O)[C@H](NC(=O)Nc2cccc(C(=O)NCCOCCOCCOCCNC(=O)[C@H](CCC(=O)O)NC(=O)CCC(C(=O)O)N3CCN(CC(=O)[O-])CCN(CC(=O)[O-])CCN(CC(=O)[O-])CC3)c2)CN(C2CCCCC2)c2ccccc21.[177Lu+3] (stereo in doubt) [[^177Lu]Lu-GAS3]",
    "SUBJECT OF TEST": "SCID mice bearing twin HEK293-CCK2i4svR and wtHEK293 tumors",
    "Biodistribution, Spleen [%IA/g]": 1.19
  }
]

Now let's try a different one.
## Task Find the recorded Biodistribution, Spleen belonging to CC(C)(C)C(=O)CN1C(=O)[C@H](NC(=O)Nc2cccc(C(=O)NCCOCCOCCOCCNC(=O)[C@@H](CCC(=O)O)NC(=O)CCC(C(=O)O)N3CCN(CC(=O)[O-])CCN(CC(=O)[O-])CCN(CC(=O)[O-])CC3)c2)CN(C2CCCCC2)c2ccccc21.[111In+3] (some centres unmarked) [[^111In]In-GAS3] and report it.
## Result 0.69
